Protocol text: recombinant barcode read abundance after kanamycin selection (control-corrected) (log10(CPM+1)); higher = more efficient recombination; sequences stand for … in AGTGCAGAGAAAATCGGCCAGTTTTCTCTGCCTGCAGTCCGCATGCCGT…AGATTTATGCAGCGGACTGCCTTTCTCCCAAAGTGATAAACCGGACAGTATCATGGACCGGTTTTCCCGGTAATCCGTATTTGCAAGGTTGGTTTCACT; site = the 11-nt target
Readout: recombinant barcode read abundance (log10)
Numbers only.

Known results for sequences:
INSERT INTO results (sequence_entry, result_number) VALUES
  ('CTTAACACTTGGGTTCTAACCTGTTGCCG (site TCATGACCTAT)', 0.0383),
  ('GAGTCGGCTTGGGTTCTAACCTGTTGCTT (site GAGACGGCTAA)', 0.23),
  ('AGGCGCCCTTGGGTTCTAACCTGTTGCAA (site AGGCGCCCTAT)', 0.187);

Need recombinant barcode read abundance (log10) for each of these sequences.
1. AGAATCCCTTGGGTTCTAACCTGTTGCTA (site AGAATCCCTTA)
2. GAGTTCACTTGGGTTCTAACCTGTTGCAG (site GAGTTCACTCT)
3. AGAAATTCTTGGGTTCTAACCTGTTGCCT (site AGCAATTCTAG)
4. TCGCACACTTGGGTTCTAACCTGTTGCTA (site TCGCACTCTTA)
5. CCTTGTTCTTGGGTTCTAACCTGTTGCCT (site ACTTGTTCTAG)
6. GAGCGAGCTTGGGTTCTAACCTGTTGCAG (site GAGCGAGCTCG)
7. GTGTACCCTTGGGTTCTAACCTGTTGCGG (site GTGTACCCTCC)

result:
1: 1.74; 2: 1.79; 3: 0.0252; 4: 0.0853; 5: 0.105; 6: 0.175; 7: 1.93

* * *

Protocol text: recombinant UMI read abundance after kanamycin selection (control-corrected) (log10(CPM+1)); higher = more efficient recombination; extreme values may be limits of the assay; sequences stand for … in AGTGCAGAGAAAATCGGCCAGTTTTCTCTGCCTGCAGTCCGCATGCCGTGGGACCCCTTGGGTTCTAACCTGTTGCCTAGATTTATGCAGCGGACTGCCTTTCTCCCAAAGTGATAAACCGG…AGGTTGGTTTCACT; site = the 11-nt donor
Lab note: compare recombinant UMI read abundance (log10) against 0.04. Equal or greater, write Y. Smaller, write N.

Use the examples below as a reference point.
INSERT INTO assay_data (sequence_entry, class) VALUES
  ('TGCAATCCATGGACCGGTTTTCCCGGTAATCCGTATTTGTT (site CGGAATCCTAA)', 'N'),
  ('GTGGGGGCATGGACCGGTTTTCCCGGTAATCCGTATTTGTG (site GTGGCGGCTCA)', 'N'),
  ('CCGGAACCATGGACCGGTTTTCCCGGTAATCCGTATTTGAT (site CGGGAACCTAT)', 'N'),
  ('CGGAGATCATGGACCGGTTTTCCCGGTAATCCGTATTTGCT (site CGGAGATCTAG)', 'Y'),
  ('CTTCGACCATGGACCGGTTTTCCCGGTAATCCGTATTTGCA (site CTTCGACCTTG)', 'N');

query: Decide: recombinant UMI read abundance (log10) of TGGGAATCATGGACCGGTTTTCCCGGTAATCCGTATTTGCG (site TCGGAATCTCG) >= 0.04?
result: Y

query: Decide: recombinant UMI read abundance (log10) of CACTCGACATGGACCGGTTTTCCCGGTAATCCGTATTTGGG (site CAATCGACTCC) >= 0.04?
result: N

query: Decide: recombinant UMI read abundance (log10) of ACTACTGCATGGACCGGTTTTCCCGGTAATCCGTATTTGGT (site ACTACTGCTAC) >= 0.04?
result: Y

query: Decide: recombinant UMI read abundance (log10) of GGATCAGCATGGACCGGTTTTCCCGGTAATCCGTATTTGAA (site GGATCAGCTTT) >= 0.04?
result: Y

query: Decide: recombinant UMI read abundance (log10) of TCGGCTACATGGACCGGTTTTCCCGGTAATCCGTATTTGCC (site TCGGCTACTGG) >= 0.04?
result: N

query: Decide: recombinant UMI read abundance (log10) of AGAGATCCATGGACCGGTTTTCCCGGTAATCCGTATTTGAA (site AGAGATCCTTT) >= 0.04?
result: Y

* * *

Protocol text: recombinant UMI read abundance after kanamycin selection (control-corrected) (log10(CPM+1)); higher = more efficient recombination; extreme values may be limits of the assay; sequences stand for … in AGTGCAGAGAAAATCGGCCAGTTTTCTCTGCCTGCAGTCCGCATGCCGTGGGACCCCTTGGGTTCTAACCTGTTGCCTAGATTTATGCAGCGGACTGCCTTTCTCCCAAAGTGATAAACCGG…AGGTTGGTTTCACT; site = the 11-nt donor
Lab note: compare recombinant UMI read abundance (log10) against 0.3. Equal or greater, write true. Smaller, write false.

Use the examples below as a reference point.
INSERT INTO measurements (sequence_entry, class) VALUES
  ('ATTTAGGCATGGACCGGTTTTCCCGGTAATCCGTATTTGGC (site ATCTAGGCTGC)', 'true'),
  ('AACCATCCATGGACCGGTTTTCCCGGTAATCCGTATTTGCC (site AACCATCCTGG)', 'false'),
  ('TCTGCGGCATGGACCGGTTTTCCCGGTAATCCGTATTTGAT (site TCTGCGGCTAT)', 'false'),
  ('TAGCTCACATGGACCGGTTTTCCCGGTAATCCGTATTTGAT (site TAGCTCACTAT)', 'true'),
  ('CGACCGACATGGACCGGTTTTCCCGGTAATCCGTATTTGTT (site CGATCGACTAA)', 'false');

query: Decide: recombinant UMI read abundance (log10) of ACAGTGTCATGGACCGGTTTTCCCGGTAATCCGTATTTGCA (site ACAGTCTCTTG) >= 0.3?
result: true

query: Decide: recombinant UMI read abundance (log10) of GGGCAGACATGGACCGGTTTTCCCGGTAATCCGTATTTGCA (site AGGAAGACTTG) >= 0.3?
result: false

query: Decide: recombinant UMI read abundance (log10) of GTTTGGACATGGACCGGTTTTCCCGGTAATCCGTATTTGAC (site GCTTGGACTGT) >= 0.3?
result: true

query: Decide: recombinant UMI read abundance (log10) of ACACGAACATGGACCGGTTTTCCCGGTAATCCGTATTTGTC (site ACACGAACTCA) >= 0.3?
result: true

query: Decide: recombinant UMI read abundance (log10) of AGTCTTTCATGGACCGGTTTTCCCGGTAATCCGTATTTGAC (site AGGCTTTCTGT) >= 0.3?
result: false

query: Decide: recombinant UMI read abundance (log10) of GCCACGGCATGGACCGGTTTTCCCGGTAATCCGTATTTGTA (site GCCACGCCTTA) >= 0.3?
result: false

query: Decide: recombinant UMI read abundance (log10) of CCAGGCGCATGGACCGGTTTTCCCGGTAATCCGTATTTGAT (site CCAGGCGCTAT) >= 0.3?
result: true

query: Decide: recombinant UMI read abundance (log10) of ACGAAGTCATGGACCGGTTTTCCCGGTAATCCGTATTTGCA (site AGGAAGACTTG) >= 0.3?
result: false

query: Decide: recombinant UMI read abundance (log10) of CCCATATCATGGACCGGTTTTCCCGGTAATCCGTATTTGTC (site CCCATACCTGA) >= 0.3?
result: true

query: Decide: recombinant UMI read abundance (log10) of GTCCCTACATGGACCGGTTTTCCCGGTAATCCGTATTTGAG (site GTCCCTACTCT) >= 0.3?
result: false

query: Decide: recombinant UMI read abundance (log10) of AATATGTCATGGACCGGTTTTCCCGGTAATCCGTATTTGAC (site AATTTGTCTGT) >= 0.3?
result: false

query: Decide: recombinant UMI read abundance (log10) of ATGGCATCATGGACCGGTTTTCCCGGTAATCCGTATTTGCG (site ATGGCATCTCG) >= 0.3?
result: true

query: Decide: recombinant UMI read abundance (log10) of AATGAAACATGGACCGGTTTTCCCGGTAATCCGTATTTGCT (site AATGGAACTAG) >= 0.3?
result: false

* * *

Protocol text: recombinant UMI read abundance after kanamycin selection (control-corrected) (log10(CPM+1)); higher = more efficient recombination; extreme values may be limits of the assay; sequences stand for … in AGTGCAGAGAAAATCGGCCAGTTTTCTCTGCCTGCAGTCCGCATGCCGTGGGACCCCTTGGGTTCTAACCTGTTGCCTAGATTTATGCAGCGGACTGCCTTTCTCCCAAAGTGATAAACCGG…AGGTTGGTTTCACT; site = the 11-nt donor
Readout: recombinant UMI read abundance (log10)
Give bare numbers.

INSERT INTO measurements (sequence_entry, readout, result_number) VALUES
  ('CCCGGTGCATGGACCGGTTTTCCCGGTAATCCGTATTTGAT (site CCCGGTGCTAT)', 'recombinant UMI read abundance (log10)', 0.907),
  ('TAGCTACCATGGACCGGTTTTCCCGGTAATCCGTATTTGAA (site TAGCTAGCTTT)', 'recombinant UMI read abundance (log10)', 0.00385),
  ('CAATGCTCATGGACCGGTTTTCCCGGTAATCCGTATTTGCA (site CAATGCTCTTC)', 'recombinant UMI read abundance (log10)', 0),
  ('AGAACGCCATGGACCGGTTTTCCCGGTAATCCGTATTTGCC (site AGAACGCCTGG)', 'recombinant UMI read abundance (log10)', 0.968),
  ('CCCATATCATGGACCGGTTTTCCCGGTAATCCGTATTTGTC (site ACCATATCTGA)', 'recombinant UMI read abundance (log10)', 0);

Need recombinant UMI read abundance (log10) for each of these sequences.
1. CTACTAACATGGACCGGTTTTCCCGGTAATCCGTATTTGGA (site CTACTAACTCC)
2. GCGCAAACATGGACCGGTTTTCCCGGTAATCCGTATTTGCT (site GCGTAAACTAG)

result:
[0.516, 0]

Need recombinant UMI read abundance (log10) for each of these sequences.
1. TTCGCGGCATGGACCGGTTTTCCCGGTAATCCGTATTTGCT (site TTAGCGGCTAG)
2. CGCGTTCCATGGACCGGTTTTCCCGGTAATCCGTATTTGGA (site CGCGTTCCTTC)

result:
[0.33, 0]
